- Assay procedure: Solubility of Compound 1 in aqueous buffers
- Format: physicochemical
- Reported conditions: 10 mM acetate buffer, aqueous buffer; 10 mM acetate, pH 4; read-out: solubility
Measured quantity: solubility (µg/mL)

CC(C)CS(=O)(=O)c1ccccc1Oc1ccc(-c2noc(CN3C(=O)N(CCN4CCOCC4)C(C)(C)C3=O)n2)cc1C(F)(F)F | 25

----------
- Assay procedure: Solubility of Compound 1 in different excipients
- Assay type: physicochemical
- Reported conditions: aqueous with cosolvent or surfactant or cyclodextrin, thermodynamic from solid; 5% HP-γ-CD pH 7; measured pH 6.9
Measured quantity: solubility (µg/mL)

CC(C)CS(=O)(=O)c1ccccc1Oc1ccc(-c2noc(CN3C(=O)N(CCN4CCOCC4)C(C)(C)C3=O)n2)cc1C(F)(F)F | 225
